Biological target: T1, Biotin-huCGRPaSA (human, not fully specified; biotin (position not given))
T1 construct: exact construct ('aSA') not explained; also called Biotin CGRPaSA; full-length (1-37) CGRP
T1 peptide: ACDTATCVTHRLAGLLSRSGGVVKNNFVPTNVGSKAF
Test: ELISA, supernatant; relative to chimeric C245

- Binder: "hu122 (antibody, V domains shown, 2B8 HC1-2/1F5 LC1-1) VH: QVQLVQSGAEVKKPGASVKVSCKASGYTFTDYNMHWVRQAPGQGLEWMGNIYPYNGGTVYNQKFNNRVTLTVDTSSSTAYMELRSLRSDDTAVYYCAREGLGGYWGQGTLVTVSS VL: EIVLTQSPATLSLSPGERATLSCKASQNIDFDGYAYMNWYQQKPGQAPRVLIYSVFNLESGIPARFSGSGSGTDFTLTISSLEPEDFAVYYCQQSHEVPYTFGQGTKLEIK"
  Relative binding activity, % (%): 97
- Binder: "hu179 (antibody, V domains shown, 3E5 HC-3/2B8 LC2-2) VH: QVQLVQSGAEVKKPGASVKVSCKASGYTFTDYNMHWVRQAPGQGLEWMGYISPYNGGTAYNQKFKFRVTLTVDTSSSTAYMELSRLRSDDTVVYYCAREGLGGYWGQGTLVTVSS VL: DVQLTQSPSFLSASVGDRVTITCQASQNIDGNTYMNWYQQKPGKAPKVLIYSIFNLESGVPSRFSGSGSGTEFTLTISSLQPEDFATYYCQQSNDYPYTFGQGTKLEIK"
  Relative binding activity, % (%): 77
- Binder: "hu45 (antibody, V domains shown, 1F5 HC-2/1F5 LC1-2) VH: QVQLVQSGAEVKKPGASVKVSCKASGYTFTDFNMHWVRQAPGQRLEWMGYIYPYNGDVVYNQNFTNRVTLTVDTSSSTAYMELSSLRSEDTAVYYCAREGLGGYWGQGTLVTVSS VL: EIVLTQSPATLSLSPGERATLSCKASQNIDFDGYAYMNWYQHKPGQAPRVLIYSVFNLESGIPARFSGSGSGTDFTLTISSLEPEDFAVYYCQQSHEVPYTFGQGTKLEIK"
  Relative binding activity, % (%): 119
- Binder: "hu47 (antibody, V domains shown, 1F5 HC-2/1F5 LC1-4) VH: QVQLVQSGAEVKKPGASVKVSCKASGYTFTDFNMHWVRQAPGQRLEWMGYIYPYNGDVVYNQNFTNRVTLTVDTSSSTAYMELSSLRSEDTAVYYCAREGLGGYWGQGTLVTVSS VL: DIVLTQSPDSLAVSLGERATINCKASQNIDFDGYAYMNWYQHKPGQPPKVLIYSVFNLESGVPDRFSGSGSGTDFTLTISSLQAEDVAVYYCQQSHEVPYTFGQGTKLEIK"
  Relative binding activity, % (%): 10
- Binder: "hu64 (antibody, V domains shown, 1F5 HC-3/3H10 LC2-1) VH: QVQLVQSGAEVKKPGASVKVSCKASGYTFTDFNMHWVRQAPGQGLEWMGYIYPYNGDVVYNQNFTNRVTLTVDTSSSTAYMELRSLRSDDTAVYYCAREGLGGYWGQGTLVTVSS VL: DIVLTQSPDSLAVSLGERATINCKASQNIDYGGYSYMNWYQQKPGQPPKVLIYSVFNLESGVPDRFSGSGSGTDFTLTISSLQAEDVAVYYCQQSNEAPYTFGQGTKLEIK"
  Relative binding activity, % (%): 116
